tested on: CMK; design: species or system AML cell lines (8); Primary HTS, single concentration about 10 uM, Cell Titer Glo viability; log10 luminescence, per cent inhibition relative to cycloheximide control; details: 72 h, relative to cycloheximide control, log10 luminescence; inhibitor
measure name: CMK %inh (%)
Answers are plain numbers, in %.

Known CMK %inh results, listed for orientation:
[
  {
    "compound": "CCn1cc(C(=O)O)c(=O)c2cc(F)c(N3CCNCC3)nc21",
    "assay target": "CMK",
    "value": 15.64
  },
  {
    "compound": "Cc1cc(O)cc(C)c1/C=C/c1cncc(C(N)=O)c1",
    "assay target": "CMK",
    "value": 90.65
  },
  {
    "compound": "CC(C)c1ccc(-c2cc(-c3c[nH]nc3-c3ccccn3)ccn2)cc1",
    "assay target": "CMK",
    "value": 0.9087
  },
  {
    "compound": "COc1cc2c(cc1Nc1nc(Nc3ccsc3C(N)=O)c3cc[nH]c3n1)N(C(=O)CN(C)C)CCC2",
    "assay target": "CMK",
    "value": 100.5
  },
  {
    "compound": "COc1cccc(-n2nc(C)c3c(N/N=C(\\C)c4ccncc4)ncnc32)c1",
    "assay target": "CMK",
    "value": -0.9949
  }
]

Dear colleague, could you please provide CMK %inh for the compounds listed below?
1. COc1cc(/C=N/Nc2ncnc3[nH]ncc23)ccc1O
2. CC1(C)O[C@@H]2C[C@H]3[C@@H]4C[C@H](F)C5=CC(=O)C=C[C@]5(C)[C@@]4(F)[C@@H](O)C[C@]3(C)[C@]2(C(=O)CO)O1 [SJ000287016-2, FLUOCINOLONE ACETONIDE]
3. O=C1NC(=NCCc2ccccn2)S/C1=C\c1ccc2ncccc2c1
4. O=C1NC(=O)C(c2ccc(Cl)cc2)=C1Nc1ccc(Cl)c(C(=O)O)c1
5. C[C@H](CS(C)(=O)=O)Nc1ncc2cc(Oc3ccc(F)cc3F)c(=O)n(C)c2n1
6. ON=C1CCc2cc(-c3nc(C4CCNCC4)[nH]c3-c3ccncc3)ccc21

[1.246, -1.286, 25.57, -5.939, -5.286, -2.711]

----------
test system: M07e; parameters: species or system AML cell lines (8); Primary HTS, single concentration about 10 uM, Cell Titer Glo viability; log10 luminescence, per cent inhibition relative to cycloheximide control; conditions: 72 h, relative to cycloheximide control, log10 luminescence; inhibitor
measure name: M07e %inh (%)
Give bare numbers, in %.

Answered cases to consult:
[
  {
    "compound": "CCn1c(-c2nonc2N)nc2cncc(C(=O)NCCNC)c21 [SJ000573046-1, FIDE/U1002/66/2]",
    "u": "%",
    "value": 12.62
  },
  {
    "compound": "NS(=O)(=O)c1ccc(-c2ccc3c(NC(=O)C4CC4)n[nH]c3c2)cc1",
    "u": "%",
    "value": -0.07238
  },
  {
    "compound": "CCCCC1C(=O)N(c2ccccc2)N(c2ccccc2)C1=O",
    "u": "%",
    "value": 3.977
  },
  {
    "compound": "Cn1cc(C2=C(c3ccc4ccccc4c3)C(=O)NC2=O)c2ccccc21",
    "u": "%",
    "value": 12.46
  },
  {
    "compound": "Fc1cccc(COc2ccc(Nc3ncnc4sc(-c5cccs5)cc34)cc2Cl)c1",
    "u": "%",
    "value": -0.3704
  }
]

Give M07e %inh for each of the items listed below.
1. CCn1c(-c2nonc2N)nc2c(C#CC(C)(C)O)ncc(OC3CCNCC3)c21
2. FC(F)(F)c1cccc(-c2nn3ncccc3c2-c2ccnc(Nc3ccc4c(c3)OCCO4)n2)c1
3. CC(C)(Oc1ccc(Cl)cc1)C(=O)O

[6.128, -0.1766, 1.241]
